measure: pIC50
Schema: pIC50 number; meaning minus log10 of the concentration expressed in molar units.

Challenge: Under Nitric oxide synthase 1 (Homo sapiens), report pIC50 for CC(=N)NCC(F)(F)CCC(N)C(=O)O (stereo not drawn)
Response given: 3.85

Challenge: Under Nitric oxide synthase 1 (Homo sapiens), report pIC50 for CC(=N)NCC(F)CCC(N)C(=O)O (stereo not drawn)
Response given: 4.15

Challenge: Under Nitric oxide synthase 1 (Homo sapiens), report pIC50 for CC(=N)NC[C@@H](F)CC[C@@H](N)C(=O)O
Response given: 3.51

====

# tgt: Nitric oxide synthase 3 (Homo sapiens, UniProt P29474)
# Sequence (P29474 whole entry): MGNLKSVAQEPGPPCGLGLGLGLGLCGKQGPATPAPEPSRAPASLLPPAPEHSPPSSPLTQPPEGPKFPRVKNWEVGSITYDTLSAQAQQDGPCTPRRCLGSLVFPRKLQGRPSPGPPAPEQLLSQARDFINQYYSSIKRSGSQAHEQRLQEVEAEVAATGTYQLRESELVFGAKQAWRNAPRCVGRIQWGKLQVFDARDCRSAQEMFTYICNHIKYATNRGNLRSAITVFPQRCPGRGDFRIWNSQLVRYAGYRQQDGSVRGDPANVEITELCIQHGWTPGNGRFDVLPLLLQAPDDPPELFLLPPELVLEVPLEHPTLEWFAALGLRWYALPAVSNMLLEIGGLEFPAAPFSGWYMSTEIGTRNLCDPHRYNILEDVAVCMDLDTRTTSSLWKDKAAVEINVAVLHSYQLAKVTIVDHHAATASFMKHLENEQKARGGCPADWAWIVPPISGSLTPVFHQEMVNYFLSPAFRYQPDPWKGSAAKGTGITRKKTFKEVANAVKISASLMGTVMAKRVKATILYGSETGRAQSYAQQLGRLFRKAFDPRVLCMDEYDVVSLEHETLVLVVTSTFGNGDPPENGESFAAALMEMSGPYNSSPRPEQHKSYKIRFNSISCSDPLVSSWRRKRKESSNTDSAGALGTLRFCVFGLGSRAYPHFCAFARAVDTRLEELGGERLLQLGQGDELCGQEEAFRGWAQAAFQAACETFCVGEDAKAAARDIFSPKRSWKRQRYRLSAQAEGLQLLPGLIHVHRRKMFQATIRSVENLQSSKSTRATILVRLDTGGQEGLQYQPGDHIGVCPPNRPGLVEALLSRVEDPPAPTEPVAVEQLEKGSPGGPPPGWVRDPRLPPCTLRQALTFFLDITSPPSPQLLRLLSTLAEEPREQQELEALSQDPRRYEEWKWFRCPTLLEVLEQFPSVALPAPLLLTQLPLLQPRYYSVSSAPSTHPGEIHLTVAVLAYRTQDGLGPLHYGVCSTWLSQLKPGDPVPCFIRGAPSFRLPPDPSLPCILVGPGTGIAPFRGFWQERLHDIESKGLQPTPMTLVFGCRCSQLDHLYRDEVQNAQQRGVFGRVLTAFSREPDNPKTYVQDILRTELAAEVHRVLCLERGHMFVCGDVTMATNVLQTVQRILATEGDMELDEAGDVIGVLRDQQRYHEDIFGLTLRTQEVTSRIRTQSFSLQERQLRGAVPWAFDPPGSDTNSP
Exercise: state measured IC50 for each of the molecules provided.
Express your answer in µM, writing the number without its unit.

Challenge: Please give measured IC50 of the following entry: CC(=N)NC[C@@H](F)CC[C@H](N)C(=O)O
Response given: 81

Challenge: Please give measured IC50 of the following entry: CC(=N)NCC(F)(F)CCC(N)C(=O)O (centres undefined)
Response given: 139

Challenge: Please give measured IC50 of the following entry: CC(=N)NCC(F)(F)CC[C@H](N)C(=O)O
Response given: 57.5

Challenge: Please give measured IC50 of the following entry: CC(=N)NCC(F)CCC(N)C(=O)O (centres undefined)
Response given: 182
